Tested on: NUGC-3 (Gastric Carcinoma)
Assay: combination Emax (second highest fraction inhibited in the dose matrix, 72 h); higher = more inhibition; extreme values may be limits of the assay
# combination Emax per record follows
Could you keep your reply to the number by itself?

Illustrative cases are given below, each with its answer.
COc1cccc(OCCCN)c1-c1cc(Nc2cnc(C#N)cn2)n[nH]1 [Prexasertib] + CN(C)CCCOc1ccc(-c2ccc3ncc4c(c3c2)n(C2CCOCC2)c(=O)n4C)cn1 [AZD0156] (first compound max 1 µM, 7x7, partner max 1 µM)
0.726
CC1(C)CCC(CN2CCN(c3ccc(C(=O)NS(=O)(=O)c4ccc(NCC5CCOCC5)c([N+](=O)[O-])c4)c(Oc4cnc5[nH]ccc5c4)c3)CC2)=C(c2ccc(Cl)cc2)C1 [Venetoclax] + COc1cc(Nc2ncc3c(n2)-c2ccc(Cl)cc2C(c2c(F)cccc2OC)=NC3)ccc1C(=O)O [Alisertib] (first compound max 1 µM, 7x7, partner max 10 µM)
0.436

Incoming: What value of measured combination Emax is listed for C[C@@H](c1ccc2nccn2c1)n1nnc2ncc(-c3cnn(C)c3)nc21 [Savolitinib] + CC1(C)CCC(CN2CCN(c3ccc(C(=O)NS(=O)(=O)c4ccc(NCC5CCOCC5)c([N+](=O)[O-])c4)c(Oc4cnc5[nH]ccc5c4)c3)CC2)=C(c2ccc(Cl)cc2)C1 [Venetoclax] (first compound max 1 µM, 7x7, partner max 1 µM) ?
Outgoing: 0.181
